molecular target: Mcl-1 protein (UniProtKB primary accession number: Q07820) (Homo sapiens, UniProt Q07820); assay: Inhibition of Mcl-1 by fluorescence polarisation, Method 1; format: binding; conditions: fluorescence polarisation test; Method 1, or Method 2 where the value is underlined (underlining not visible); read-out: IC50 (M) Mcl-1 FP
Sequence (Q07820 whole entry): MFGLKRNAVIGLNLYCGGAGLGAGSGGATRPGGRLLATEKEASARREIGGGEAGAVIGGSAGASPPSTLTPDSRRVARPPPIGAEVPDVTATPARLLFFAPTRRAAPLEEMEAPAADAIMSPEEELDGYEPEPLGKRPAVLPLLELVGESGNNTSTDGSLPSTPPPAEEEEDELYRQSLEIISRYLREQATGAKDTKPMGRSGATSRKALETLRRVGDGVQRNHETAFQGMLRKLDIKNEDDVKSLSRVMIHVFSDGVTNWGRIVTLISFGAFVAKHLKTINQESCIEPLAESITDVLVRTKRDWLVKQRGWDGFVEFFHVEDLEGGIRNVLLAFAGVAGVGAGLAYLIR
Provide the recorded IC50 for the entries that follow.
// note: answer is a bare numeric in M

Prompt line: Which IC50 reading was recorded for the compound COc1ccccc1-c1nccc(COc2ccccc2CC(Oc2ncnc3sc(-c4ccc(F)cc4)c(-c4ccc(OCCN5CCN(C)CC5)c(Cl)c4C)c23)C(=O)Oc2ccc3c(c2)CCC3)n1 (stereo not shown) ?
Response line: 6.91e-07

Prompt line: Which IC50 reading was recorded for the compound Cc1oc(=O)oc1COC(=O)C(Cc1ccccc1OCc1ccnn1C(C)(C)C)Oc1ncnc2sc(-c3ccc(F)cc3)c(-c3ccc(OCCN(C)C)c(Cl)c3C)c12 (stereo not shown) ?
Response line: 1.29e-08

Prompt line: Which IC50 reading was recorded for the compound Cc1c(-c2c(-c3ccc(F)cc3)sc3ncnc(OC(Cc4ccccc4OCc4ccnc(-c5ccccc5F)n4)C(=O)OCC(=O)N(C)C)c23)ccc(OCCN(C)C)c1Cl (stereo not shown) ?
Response line: 1.12e-06

Prompt line: Which IC50 reading was recorded for the compound COc1ccccc1-c1nccc(COc2ccccc2CC(Oc2ncnc3sc(-c4ccc(F)cc4)c(-c4ccc(OC)c(Cl)c4C)c23)C(=O)O)n1 (stereo not shown) ?
Response line: 4.8e-09

Prompt line: Which IC50 reading was recorded for the compound COc1ccccc1-c1nccc(COc2ccccc2CC(Oc2ncnc3sc(-c4ccc(F)cc4)c(-c4ccc(OCCN5CCN(C)CC5)c(Cl)c4C)c23)C(=O)OC(C)OC(C)=O)n1 (stereo not shown) ?
Response line: 2.11e-07

Prompt line: Which IC50 reading was recorded for the compound CCOC(=O)C(Cc1ccccc1OCc1ccnc(-c2ccccc2F)n1)Oc1ncnc2sc(-c3ccc(F)cc3)c(-c3ccc(OCCN4CCN(C)CC4)c(Cl)c3C)c12 (stereo not shown) ?
Response line: 2.75e-06

Prompt line: Which IC50 reading was recorded for the compound COc1ccccc1-c1nccc(COc2ccccc2CC(Oc2ncnc3sc(-c4ccccc4F)c(-c4ccc(OCCN5CCN(C)CC5)c(Cl)c4C)c23)C(=O)O)n1 (stereo not shown) ?
Response line: 2.9e-09

Prompt line: Which IC50 reading was recorded for the compound CCOC(=O)C(Cc1ccccc1OCc1ccnc(-c2ccccc2F)n1)Oc1ncnc2sc(-c3ccc(F)cc3)c(-c3ccc(OCCN(C)CC)c(Cl)c3C)c12 (stereo not shown) ?
Response line: 4.37e-06

Prompt line: Which IC50 reading was recorded for the compound COCCOC(=O)C(Cc1ccccc1OCc1ccnc(-c2ccccc2OCCOC)n1)Oc1ncnc2sc(-c3ccc(F)cc3)c(-c3ccc(OCCN(C)C)c(Cl)c3C)c12 (stereo not shown) ?
Response line: 1.39e-06

Prompt line: Which IC50 reading was recorded for the compound CCOC(=O)C(Cc1ccccc1OCc1ccnn1C(C)(C)C)Oc1ncnc2sc(-c3cccc(F)c3F)c(-c3ccc(OCCN(C)C)c(Cl)c3C)c12 (stereo not shown) ?
Response line: 4.68e-05

Prompt line: Which IC50 reading was recorded for the compound COc1ccccc1-c1nccc(COc2ccccc2CC(Oc2ncnc3sc(-c4ccc(F)cc4)c(-c4ccc(OCCN5CCN(C)CC5)c(Cl)c4C)c23)C(=O)OC(C)OC(=O)C(C)C)n1 (stereo not shown) ?
Response line: 5.77e-07

Prompt line: Which IC50 reading was recorded for the compound CCOC(=O)C(Cc1ccccc1OCc1ccnc(-c2ccccc2O)n1)Oc1ncnc2sc(-c3ccc(F)cc3)c(-c3ccc(OCCN4CCN(C)CC4)c(Cl)c3C)c12 (stereo not shown) ?
Response line: 5.37e-06

Prompt line: Which IC50 reading was recorded for the compound COc1ccccc1-c1nccc(COc2ccccc2CC(Oc2ncnc3sc(-c4ccc(F)cc4)c(-c4ccc(OCCN5CCN(C)CC5)c(Cl)c4C)c23)C(=O)OCC(=O)N(C)C)n1 (stereo not shown) ?
Response line: 6.51e-07

Prompt line: Which IC50 reading was recorded for the compound Cc1c(-c2c(-c3cccc(F)c3F)sc3ncnc(OC(Cc4ccccc4OCc4ccnn4C(C)(C)C)C(=O)OCC(=O)N(C)C)c23)ccc(OCCN(C)C)c1Cl (stereo not shown) ?
Response line: 5.82e-07

Prompt line: Which IC50 reading was recorded for the compound COc1ccccc1-c1nccc(COc2ccccc2CC(Oc2ncnc3sc(-c4cccc(F)c4)c(-c4ccc(OCCN5CCN(C)CC5)c(Cl)c4C)c23)C(=O)O)n1 (stereo not shown) ?
Response line: 2.8e-09

Prompt line: Which IC50 reading was recorded for the compound COc1ccccc1-c1nccc(COc2ccccc2CC(Oc2ncnc3sc(-c4ccc(F)cc4)c(-c4ccc(OCCN5CCN(C)CC5)c(Cl)c4C)c23)C(=O)OCOC(=O)C(C)(C)C)n1 (stereo not shown) ?
Response line: 4.2e-07

Prompt line: Which IC50 reading was recorded for the compound COc1ccccc1-c1nccc(COc2ccccc2CC(Oc2ncnc3sc(-c4ccc(F)cc4)c(-c4ccc(OCCN5CCN(C)CC5)c(Cl)c4C)c23)C(=O)OCCN(C)C)n1 (stereo not shown) ?
Response line: 5.47e-09

Prompt line: Which IC50 reading was recorded for the compound Cc1c(-c2c(-c3ccc(F)cc3)sc3ncnc(OC(Cc4ccccc4OCc4ccnc(-c5ccccc5F)n4)C(=O)OCOC(=O)C(C)(C)C)c23)ccc(OCCN2CCN(C)CC2)c1Cl (stereo not shown) ?
Response line: 1.72e-07

Prompt line: Which IC50 reading was recorded for the compound COc1ccccc1CC(Oc1ncnc2sc(-c3ccc(F)cc3)c(-c3ccc(OC)c(Cl)c3C)c12)C(=O)O (stereo not shown) ?
Response line: 1.28e-07

Prompt line: Which IC50 reading was recorded for the compound COc1ccccc1-c1nccc(COc2ccccc2CC(Oc2ncnc3sc(-c4ccc(F)cc4)c(-c4ccc(OCCN5CCN(C)CC5)c(Cl)c4C)c23)C(=O)OC(C)OC(=O)C(C)(C)C)n1 (stereo not shown) ?
Response line: 1.13e-06

Prompt line: Which IC50 reading was recorded for the compound `COc1ccccc1-c1nccc(COc2ccccc2C[C@@H](Oc2ncnc3sc(-c4ccc(F)cc4)c(-c4ccc(OCCN5CCN(C)CC5)c(Cl)c4OC)c23)C(=O)O)n1` ?
Response line: 2.35e-09

Prompt line: Which IC50 reading was recorded for the compound CCOC(=O)C(Cc1ccccc1OCc1ccnc(-c2ccccc2O)n1)Oc1ncnc2sc(-c3ccc(F)cc3)c(-c3ccc(OCCN4CCNCC4)c(Cl)c3C)c12 (stereo not shown) ?
Response line: 5.15e-06

Source listed as patent US9670227B2.
